These measurements were taken from BindingDB's records for doi:10.7270/Q2QN6575.

Quick list: pEC50 per entry.
systemUnderTest: Citrate synthase, peroxisomal [1-24] (Saccharomyces cerevisiae, UniProt P08679)
Construct: 1-24
Sequence (P08679 1-24): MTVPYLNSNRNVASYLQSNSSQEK
protocolDetails: CIT2-GFP expression modulators in yeast, SAR follow-up, flow cytometry, cherry pick 3, dose response (AID 488825)
conditionDescription: inactive by the depositor's call
pEC50: −log10 of the molar value.
assayEndpoint: pEC50

>>> df
                                   compound  assayendpoint  observed
0  COc1ccccc1-c1cc(C(F)(F)F)nc(S(=O)(=O)CCCC(=O)O)n1          pEC50      4.24
1        Cc1ccc(C(=O)Nc2nc(-c3ccccn3)cs2)o1          pEC50      2.43
2                   O=C(O)c1ccc2cccc(O)c2n1          pEC50      3.52
3                   Oc1c(Cl)cc(Cl)c2cccnc12          pEC50      1.70
4  CCC(C)Nc1nc(N)c([N+](=O)[O-])c(Nc2ccccc2OC)n1 (stereo not given)          pEC50      3.89

----------
systemUnderTest: Citrate synthase, peroxisomal [1-24] (Saccharomyces cerevisiae)
Construct: 1-24
protocolDetails: CIT2-GFP expression modulators in yeast, SAR follow-up, flow cytometry, cherry pick 3, dose response (AID 488825)
pEC50: −log10 of the molar value.
assayEndpoint: pEC50

                          chemicalstructure  observed
0  Cc1nc(Nc2ccc(Br)cc2Br)c([N+](=O)[O-])c(=O)[nH]1      4.13
